Biological target: PRKG2 (human) (UniProt Q13237)
Sequence (Q13237 whole entry, looked up): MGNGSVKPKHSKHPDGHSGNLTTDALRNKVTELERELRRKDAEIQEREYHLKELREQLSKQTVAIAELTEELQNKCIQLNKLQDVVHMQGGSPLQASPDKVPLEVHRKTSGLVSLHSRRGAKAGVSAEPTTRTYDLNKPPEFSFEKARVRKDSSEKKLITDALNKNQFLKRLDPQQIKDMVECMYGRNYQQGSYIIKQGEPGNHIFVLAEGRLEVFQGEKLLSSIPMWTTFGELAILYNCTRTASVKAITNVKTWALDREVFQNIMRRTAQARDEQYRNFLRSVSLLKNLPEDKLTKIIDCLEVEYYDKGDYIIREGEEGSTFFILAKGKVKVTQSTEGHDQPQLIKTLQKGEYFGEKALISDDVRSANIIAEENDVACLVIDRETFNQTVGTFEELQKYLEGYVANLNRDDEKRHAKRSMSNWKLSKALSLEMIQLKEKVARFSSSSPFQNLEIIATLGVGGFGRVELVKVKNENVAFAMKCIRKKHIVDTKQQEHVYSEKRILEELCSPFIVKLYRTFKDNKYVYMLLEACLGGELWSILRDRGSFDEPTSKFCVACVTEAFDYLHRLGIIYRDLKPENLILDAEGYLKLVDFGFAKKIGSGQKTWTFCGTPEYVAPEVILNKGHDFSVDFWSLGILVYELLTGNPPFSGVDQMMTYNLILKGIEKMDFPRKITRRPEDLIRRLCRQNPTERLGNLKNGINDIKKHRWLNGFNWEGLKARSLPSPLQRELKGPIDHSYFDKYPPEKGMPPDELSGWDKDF
Assay: radiometric filter-binding kinase assay, Kinase HotSpot
Conditions: compound 0.5 µM; ATP 10 µM
measurement-label: residual activity

Would you please look over these solved cases?
compound | measured-value
Nc1nc(Nc2ccc(S(N)(=O)=O)cc2)nn1C(=O)c1c(F)cccc1F | 92.2%
O=c1cc(-c2cccc3c2Sc2ccccc2S3)oc(N2CCOCC2)c1 | 92.2%

Report measured residual activity; entry is Nc1n[nH]c2nnc(-c3c(-c4ccccc4)nn4ccccc34)cc12
104%

Report measured residual activity; entry is O=C1Nc2ccccc2/C1=C\c1c(Cl)[nH]c2ccccc12
71.7%

Report measured residual activity; entry is O=C1Nc2cc(Br)ccc2/C1=C1/Nc2ccccc2/C1=N\O
69.1%

Report measured residual activity; entry is Clc1ccc(Nc2nnc(Cc3ccncc3)c3ccccc23)cc1
101%

Report measured residual activity; entry is CC(C)(C)c1nc2c3ccc(F)cc3c3c(=O)[nH]ccc3c2[nH]1
14.3%

Report measured residual activity; entry is Oc1ccc(-c2nc(-c3ccc(F)cc3)c(-c3ccncc3)[nH]2)cc1
94.2%

Report measured residual activity; entry is C#Cc1cccc(Nc2ncnc3cc(OCCOC)c(OCCOC)cc23)c1
107%

Report measured residual activity; entry is CSc1nc(-c2ccc(F)cc2)c(-c2ccnc(NC(C)c3ccccc3)c2)[nH]1 (stereo not given)
102%

Report measured residual activity; entry is CCCNC(=O)Nc1ccc(Oc2ncnc3cc(OC)c(OC)cc23)cc1Cl
97%

Report measured residual activity; entry is COc1ccc(-c2cnc3c(-c4ccsc4)cnn3c2)cc1
92%

Report measured residual activity; entry is CC(C)[C@H](CO)Nc1nc(Nc2cccc(Cl)c2)c2ncn(C(C)C)c2n1
89.3%

Report measured residual activity; entry is Nc1nc(Nc2ccc(S(N)(=O)=O)cc2)nn1C(=S)Nc1c(F)cccc1F
61.4%

Report measured residual activity; entry is O=C(Nc1ccc(Cl)cc1)c1ccccc1NCc1ccncc1
99.1%

###

residual activity: recorded values
Molecular target: FYN (human) (UniProt P06241)
Sequence (P06241 whole entry, looked up): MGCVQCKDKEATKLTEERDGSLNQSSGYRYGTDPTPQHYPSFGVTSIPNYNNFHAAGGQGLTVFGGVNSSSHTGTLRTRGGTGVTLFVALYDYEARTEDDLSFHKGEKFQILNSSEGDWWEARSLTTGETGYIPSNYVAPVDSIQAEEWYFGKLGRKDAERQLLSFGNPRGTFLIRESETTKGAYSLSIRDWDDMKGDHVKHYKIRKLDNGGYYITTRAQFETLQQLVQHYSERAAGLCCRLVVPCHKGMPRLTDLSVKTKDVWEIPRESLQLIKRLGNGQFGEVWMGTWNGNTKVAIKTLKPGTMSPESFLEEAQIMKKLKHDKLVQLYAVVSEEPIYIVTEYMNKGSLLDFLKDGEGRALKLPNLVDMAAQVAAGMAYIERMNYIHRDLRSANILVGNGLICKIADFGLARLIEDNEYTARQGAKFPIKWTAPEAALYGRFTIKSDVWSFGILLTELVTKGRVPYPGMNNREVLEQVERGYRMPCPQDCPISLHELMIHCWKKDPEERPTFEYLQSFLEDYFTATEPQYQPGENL
Assay: radiometric filter-binding kinase assay, Kinase HotSpot
Conditions: compound 0.5 µM; ATP 10 µM
A number alone suffices; assume %.

test-smiles | system | measured-value
Cc1ccc(NC(=O)c2ccc(CN3CCN(C)CC3)cc2)cc1Nc1nc(-c2cccnc2)cs1 | FYN (human) (UniProt P06241) | 37.3
O=C1Nc2cc(Br)ccc2/C1=C1/Nc2ccccc2/C1=N\O | FYN (human) (UniProt P06241) | 5.05

Report measured residual activity; entry is Clc1ccc(Nc2nnc(Cc3ccncc3)c3ccccc23)cc1
104

Report measured residual activity; entry is C#Cc1cccc(Nc2ncnc3cc(OCCOC)c(OCCOC)cc23)c1
94.7

Report measured residual activity; entry is COc1ccc(-c2cnc3c(-c4ccsc4)cnn3c2)cc1
86.3

Report measured residual activity; entry is CC(C)n1cnc2c(Nc3cccc(Cl)c3)nc(NCCO)nc21
60.4

###

Target: MAPKAPK5 (human) (UniProt Q8IW41)
Sequence (Q8IW41 whole entry, looked up): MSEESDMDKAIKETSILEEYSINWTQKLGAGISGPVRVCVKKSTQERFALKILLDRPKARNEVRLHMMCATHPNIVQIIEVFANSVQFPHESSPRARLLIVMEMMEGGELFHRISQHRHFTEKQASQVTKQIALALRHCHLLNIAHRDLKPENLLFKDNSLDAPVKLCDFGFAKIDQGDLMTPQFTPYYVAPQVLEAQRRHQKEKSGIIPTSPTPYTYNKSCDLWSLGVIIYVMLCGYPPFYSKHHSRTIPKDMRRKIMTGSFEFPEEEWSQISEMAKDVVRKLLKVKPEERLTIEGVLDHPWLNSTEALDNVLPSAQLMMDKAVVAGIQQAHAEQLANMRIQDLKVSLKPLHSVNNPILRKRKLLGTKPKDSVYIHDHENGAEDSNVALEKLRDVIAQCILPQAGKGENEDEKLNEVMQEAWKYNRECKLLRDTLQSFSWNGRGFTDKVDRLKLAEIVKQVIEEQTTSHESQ
Test: radiometric filter-binding kinase assay, Kinase HotSpot
Details: compound 0.5 µM; ATP 10 µM
measurement-label: residual activity (%)
A number alone suffices; assume %.

Would you please look over these solved cases?
test-smiles | system | residual activity, %
O=C1Nc2cc(Br)ccc2/C1=C1/Nc2ccccc2/C1=N\O | MAPKAPK5 (human) (UniProt Q8IW41) | 82.7
Cc1ccc(NC(=O)c2ccc(CN3CCN(C)CC3)cc2)cc1Nc1nc(-c2cccnc2)cs1 | MAPKAPK5 (human) (UniProt Q8IW41) | 103

Report measured residual activity; entry is O=C1Nc2ccccc2/C1=C\c1c(Cl)[nH]c2ccccc12
121

Report measured residual activity; entry is CC(C)n1cnc2c(Nc3cccc(Cl)c3)nc(NCCO)nc21
68.6

Report measured residual activity; entry is COc1ccc(-c2cnc3c(-c4ccsc4)cnn3c2)cc1
90.7

Report measured residual activity; entry is Oc1ccc(-c2nc(-c3ccc(F)cc3)c(-c3ccncc3)[nH]2)cc1
102

Report measured residual activity; entry is CC(C)[C@H](CO)Nc1nc(Nc2cccc(Cl)c2)c2ncn(C(C)C)c2n1
97.6

Report measured residual activity; entry is O=C(Nc1ccc(Cl)cc1)c1ccccc1NCc1ccncc1
88.7

Report measured residual activity; entry is O=c1cc(N2CCNCC2)oc2c(-c3ccccc3)cccc12
104

Report measured residual activity; entry is Nc1nc(Nc2ccc(S(N)(=O)=O)cc2)nn1C(=O)c1c(F)cccc1F
80.3

Report measured residual activity; entry is CCCNC(=O)Nc1ccc(Oc2ncnc3cc(OC)c(OC)cc23)cc1Cl
92.2
